Target: Pim-2 (Homo sapiens, UniProt Q9P1W9)
Sequence (Q9P1W9 whole entry): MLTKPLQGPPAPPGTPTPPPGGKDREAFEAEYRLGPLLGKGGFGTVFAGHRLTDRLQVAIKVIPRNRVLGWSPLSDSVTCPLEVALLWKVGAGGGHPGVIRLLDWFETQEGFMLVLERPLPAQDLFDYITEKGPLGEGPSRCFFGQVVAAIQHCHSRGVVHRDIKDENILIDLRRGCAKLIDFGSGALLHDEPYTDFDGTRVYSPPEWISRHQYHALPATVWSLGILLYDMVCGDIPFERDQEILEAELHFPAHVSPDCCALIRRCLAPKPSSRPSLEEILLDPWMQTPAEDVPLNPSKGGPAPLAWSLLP
result-type: IC50
Give your result as the value with the unit written after it.

Need IC50, item CN1CCN(c2ccc(-c3cnc4ccc(/C=C5\SC(=O)NC5=O)nn34)cc2C(C)(C)C)CC1
190 nM
